target.desc: Cst6 (UniProt P40535)
Sequence (P40535 whole entry): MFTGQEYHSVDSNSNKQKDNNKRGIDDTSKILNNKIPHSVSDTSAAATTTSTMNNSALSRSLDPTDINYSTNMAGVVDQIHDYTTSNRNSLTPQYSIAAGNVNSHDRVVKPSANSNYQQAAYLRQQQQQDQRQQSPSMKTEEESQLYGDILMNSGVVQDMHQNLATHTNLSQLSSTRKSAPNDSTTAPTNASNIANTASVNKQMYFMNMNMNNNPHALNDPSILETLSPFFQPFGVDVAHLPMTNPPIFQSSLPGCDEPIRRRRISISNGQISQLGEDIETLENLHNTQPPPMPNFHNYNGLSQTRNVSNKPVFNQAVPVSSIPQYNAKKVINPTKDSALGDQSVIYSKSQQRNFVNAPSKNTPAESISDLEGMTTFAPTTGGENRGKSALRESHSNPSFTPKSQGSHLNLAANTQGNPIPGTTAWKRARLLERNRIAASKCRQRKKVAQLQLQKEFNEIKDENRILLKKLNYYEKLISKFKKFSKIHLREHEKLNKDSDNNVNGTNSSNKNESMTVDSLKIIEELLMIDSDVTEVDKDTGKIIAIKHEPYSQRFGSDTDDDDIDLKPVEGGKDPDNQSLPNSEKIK
assay.info: PBM E-score (8-mer binding enrichment) (E-score (-0.5 to 0.5)); higher = stronger / more preferred TF binding
conditions.used: protein concentration: 200 nM; construct: GST-DNA-binding domain
The full ranking holds about 33,000 sequences; the median of “E-score (-0.5 to 0.5)” is about -0.016, and the highest 2% start at about 0.31. For the sample, the highest values were picked, then their nearest neighbours and some sequences at random.
Let's look at some sequences and their measured PBM E-score.
measurement.label: PBM E-score

>>> numeric_result("ATAGCTAT")
-0.0877
>>> numeric_result("CACACGGC")
0.293
>>> numeric_result("CTCCGCAC")
-0.0765

###

target.desc: Cst6 (UniProt P40535)
assay.info: PBM E-score (8-mer binding enrichment) (E-score (-0.5 to 0.5)); higher = stronger / more preferred TF binding
conditions.used: protein concentration: 200 nM; construct: GST-DNA-binding domain
In all, about 33,000 sequences were measured (“E-score (-0.5 to 0.5)”: median about -0.016, highest 2% from about 0.31 on). The sample holds the highest values, similar sequences and a random draw of the others, so the mix is not that of the screen.
PBM E-score of 0.3 or higher: 1.0. Under 0.3: 0.0.

>>> answer_label("TACCTACA")
0.0
>>> answer_label("AATTTTAC")
1.0
>>> answer_label("AAGCGTCA")
1.0
>>> answer_label("GAATGATA")
0.0
>>> answer_label("TAGCGTCA")
1.0
>>> answer_label("ACACGTAT")
0.0
>>> answer_label("TTACGTAA")
1.0
>>> answer_label("GGACCTAA")
0.0
>>> answer_label("GAGTTGGA")
0.0
>>> answer_label("TTACGAAA")
0.0
>>> answer_label("CATTTTAC")
0.0

###

Let's look at some sequences and their measured PBM E-score.
target.desc: Cst6 (UniProt P40535)
assay.info: PBM E-score (8-mer binding enrichment) (E-score (-0.5 to 0.5)); higher = stronger / more preferred TF binding
conditions.used: protein concentration: 200 nM; construct: GST-DNA-binding domain
In all, about 33,000 sequences were measured (“E-score (-0.5 to 0.5)”: median about -0.016, highest 2% from about 0.31 on). This excerpt belongs to a sample that is enriched for the highest values.
measurement.label: PBM E-score

>>> numeric_result("ACCGGATA")
-0.0988
>>> numeric_result("ATCATTGC")
0.188
>>> numeric_result("AGGTCACA")
-0.0345
>>> numeric_result("GGAACGCA")
-0.112
>>> numeric_result("CGTTATGA")
0.0852
>>> numeric_result("CTCATTGA")
-0.0286
>>> numeric_result("AGCTTTTC")
-0.00677
>>> numeric_result("GGAGCAGA")
-0.114
>>> numeric_result("ATCTTCTC")
-0.0503
>>> numeric_result("ATCGACGA")
0.00463
>>> numeric_result("AAGAGGAC")
-0.249
>>> numeric_result("CCTGCGCG")
-0.0722
>>> numeric_result("CTCGCATC")
0.00499
>>> numeric_result("CCCAAAAC")
0.105
>>> numeric_result("ATCATTGA")
0.306
>>> numeric_result("ACGTCACG")
0.49
>>> numeric_result("ACCCGACT")
-0.16
>>> numeric_result("ATCTATCA")
0.128
>>> numeric_result("CGTGGTGC")
-0.177
>>> numeric_result("AAGTCACT")
0.141
>>> numeric_result("ATCACCGA")
0.212
>>> numeric_result("ATCACCAC")
0.244
>>> numeric_result("TTCACCAA")
0.124
>>> numeric_result("GTCACCAA")
0.315
>>> numeric_result("GTCACCAC")
0.373
>>> numeric_result("ATCTCTCG")
-0.0585
>>> numeric_result("CTCACCAC")
-0.0767
>>> numeric_result("ACGTAAAG")
0.306
